system: Mus musculus; assay: Compound was tested for cognitive activity by measuring retention for passive avoidance learning in mice at dose 10 mg/kg; assay type: functional, organism-based; set-up: dose 10 mg/kg
So basically: is Retention under 60%? Then met. Not under? Then not met.

| compound | classification |
| --- | --- |
| [Cl-].[Li+] | met |
| CCC1(C)CC(=O)NC1=O (centres undefined) | not met |
| Cn1c(=O)c2c(ncn2C)n(C)c1=O | met |
| O=C1NC(=O)C(c2ccccc2)(c2ccccc2)N1 | met |
| N[C@@H]1C[C@H]1c1ccccc1.N[C@H]1C[C@@H]1c1ccccc1 | not met |

Here is the next item to consider.
Inquiry: Lab note: confirm whether the reported Retention for this compound is below 60%, equality not counting. compound: COC(=O)C(c1ccccc1)C1CCCCN1 (centres undefined)
Reply text: not met

* * *

Retention: recorded values
tested on: Mus musculus; experiment: Compound was tested for cognitive activity by measuring retention for passive avoidance learning in mice at dose 0.63 mg/kg; assay type: functional, organism-based; parameters: dose 0.63 mg/kg
# value in %; strip the unit string

| compound | Retention, % |
| --- | --- |
| CCCC(C)C1(CC)C(=O)NC(=O)NC1=O (stereo not given) | 23 |
| C[C@H](N)Cc1ccccc1 | 100 |
| CN1[C@@H]2C[C@@H](OC(=O)[C@H](CO)c3ccccc3)C[C@H]1[C@@H]1O[C@@H]12 | 30 |

The recorded Retention with Mus musculus for "O=c1[nH]c2ccccc2n1C1CCN(CCCC(c2ccc(F)cc2)c2ccc(F)cc2)CC1" was 27

The recorded Retention with Mus musculus for C=C(C)[C@@H]1[C@H]2OC(=O)[C@@H]1[C@]1(O)C[C@H]3OC34C(=O)O[C@H]2[C@@]41C.CC(C)(O)[C@@H]1[C@H]2OC(=O)[C@@H]1[C@]1(O)C[C@H]3OC34C(=O)O[C@H]2[C@@]41C (stereo not given in full) was 80

* * *

test system: Mus musculus; experiment: Compound was tested for cognitive activity by measuring retention for passive avoidance learning in mice at dose 0.15 mg/kg; type: functional, organism-based; parameters: dose 0.15 mg/kg
measure: Retention (%)
# value in %; strip the unit string

"CN1[C@@H]2C[C@@H](OC(=O)[C@H](CO)c3ccccc3)C[C@H]1[C@@H]1O[C@@H]12" has a reported Retention of 65

"C[C@H](N)Cc1ccccc1" has a reported Retention of 45

"O=c1[nH]c2ccccc2n1C1CCN(CCCC(c2ccc(F)cc2)c2ccc(F)cc2)CC1" has a reported Retention of 43

"CNC(=O)Oc1ccc2c(c1)[C@]1(C)CCN(C)[C@@H]1N2C" has a reported Retention of 45

* * *

tested on: Mus musculus; experiment: Retention for passive avoidance learning in mice at dose 5.0 mg/kg; assay type: functional, organism-based; parameters: dose 5 mg/kg
So basically: is Retention under 70%? Then fulfilled. Not under? Then not fulfilled.

As a guide, the following entries are already answered.
| chem smiles | classification |
| --- | --- |
| c1ccc(Oc2cccnc2)cc1 | not fulfilled |
| [O-][n+]1cccc(Oc2ccccc2)c1 | fulfilled |
| Clc1ccccc1Oc1cccnc1 | not fulfilled |
| Clc1cccc(Oc2cccnc2)c1 | fulfilled |
| c1ccc(Sc2cccnc2)cc1 | not fulfilled |

Inquiry: Lab note: confirm whether the reported Retention for this compound is below 70%, equality not counting. compound: "Fc1ccccc1Oc1cccnc1"
Reply text: not fulfilled

Inquiry: Lab note: confirm whether the reported Retention for this compound is below 70%, equality not counting. compound: "c1cncc(Oc2cccnc2)c1"
Reply text: not fulfilled

Inquiry: Lab note: confirm whether the reported Retention for this compound is below 70%, equality not counting. compound: "FC(F)(F)c1cccc(Oc2cccnc2)c1"
Reply text: fulfilled
